molecular target: S-adenosylmethionine synthase isoform type-2 (Homo sapiens); assay: Inhibition of recombinant human MAT2A expressed in baculovirus infected Sf9 cells assessed as S-adenosyl methionine production using L-methionine as substrate incubated for 60 mins followed by substrate addition and measured after 60 mins relative to control; parameters: concentration or dose not given beside the values
Sequence (P31153 whole entry, looked up, canonical isoform): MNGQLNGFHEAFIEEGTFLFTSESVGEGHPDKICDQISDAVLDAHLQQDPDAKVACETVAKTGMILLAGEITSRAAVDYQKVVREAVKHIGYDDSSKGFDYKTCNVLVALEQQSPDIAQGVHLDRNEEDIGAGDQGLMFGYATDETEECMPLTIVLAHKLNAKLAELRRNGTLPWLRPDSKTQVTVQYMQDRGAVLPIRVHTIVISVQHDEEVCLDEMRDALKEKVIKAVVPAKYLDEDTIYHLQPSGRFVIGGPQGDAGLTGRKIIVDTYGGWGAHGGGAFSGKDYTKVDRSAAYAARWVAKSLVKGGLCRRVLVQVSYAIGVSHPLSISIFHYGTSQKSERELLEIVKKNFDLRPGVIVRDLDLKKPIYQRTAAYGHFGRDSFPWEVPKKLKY
Recorded measurements of inhibition, one per entry
// note: answer is a bare numeric in %

Recorded results for 5 compounds are shown here.
- Smiles entry: "Cc1[nH]c2c(N3CCCCC3)c(-c3ccccc3)nn2c(=O)c1-c1ccc(O)cc1"
  inhibition [%]: 91
- Smiles entry: "COc1ccc(-c2c(Nc3ccccn3)[nH]c3c(C4=CCCCC4)c(-c4ccccc4)nn3c2=O)cc1"
  inhibition [%]: 91
- Smiles entry: "Cc1cc(=O)n2nc(-c3ccccc3)c(-c3ccco3)c2[nH]1"
  inhibition [%]: 90
- Smiles entry: "Cc1[nH]c2c(N3CCCCC3)c(-c3ccccc3)nn2c(=O)c1-c1ccc2[nH]cnc2c1"
  inhibition [%]: 92
- Smiles entry: "O=c1c(-c2ccc3ncccc3c2)c(Nc2cc[nH]n2)[nH]c2c(C3=CCCCC3)c(-c3ccccc3)nn12"
  inhibition [%]: 92

Query: Fill blank: measured inhibition of the compound Cc1cc(=O)n2nc(-c3ccccc3)c(C3=CCCCC3)c2[nH]1 is ____.
Reply: 85

Query: Fill blank: measured inhibition of the compound Cc1cc(=O)n2nc(-c3cccc(O)c3)c(-c3ccccc3)c2[nH]1 is ____.
Reply: 92

---

molecular target: S-adenosylmethionine synthase isoform type-2 (Homo sapiens, UniProt P31153); test: Inhibition of recombinant human MAT2A expressed in baculovirus infected Sf9 cells assessed as S-adenosyl methionine production using L-methionine as substrate incubated for 60 mins followed by substrate addition and measured after 60 mins; settings: read-out: IC50
Sequence (P31153 whole entry, canonical isoform): as the sequence (P31153 whole entry, looked up, canonical isoform) above
Value kind: IC50 (nM)
// note: answer is a bare numeric in nM

Recorded results for 3 compounds are shown here.
- Smiles entry: "Cc1cc(=O)n2nc(-c3ccccc3)c(-c3ccccc3)c2[nH]1"
  Unit annotation: "nM"
  IC50: 1500
- Smiles entry: "Cc1[nH]c2c(N3CCCCC3)c(-c3ccccc3)nn2c(=O)c1-c1ccncc1"
  Unit annotation: "nM"
  IC50: 160
- Smiles entry: "Cc1c(-c2ccc3ncccc3c2)c(=O)n2nc(-c3ccccc3)c(-c3ccccc3)c2n1C"
  Unit annotation: "nM"
  IC50: 120

Here is the next item to consider.
Query: Fill blank: measured IC50 of the compound Cc1cc(=O)n2nc(-c3ccccc3)c(C3CCCCC3)c2[nH]1 is ____.
Reply: 660

---

target: S-adenosylmethionine synthase isoform type-2 (Homo sapiens); assay: Inhibition of recombinant human MAT2A expressed in baculovirus infected Sf9 cells assessed as S-adenosyl methionine production using L-methionine as substrate incubated for 60 mins followed by substrate addition and measured after 60 mins; settings: read-out: IC50
Recorded measurements of IC50, one per entry
// note: answer is a bare numeric in nM

- Smiles entry: "Cc1cc(=O)n2nc(-c3ccccc3)c(C3=CCCCC3)c2[nH]1"
  IC50 (nM): 260
- Smiles entry: "Cc1[nH]c2c(C3=CCCC3)c(-c3ccccc3)nn2c(=O)c1-c1ccc2ncccc2c1"
  IC50 (nM): 159
- Smiles entry: "Cc1[nH]c2c(N3CCCCC3)c(-c3ccccc3)nn2c(=O)c1-c1cscn1"
  IC50 (nM): 158

Here is the next item to consider.
Query: Fill blank: measured IC50 of the compound Cc1[nH]c2c(N3CCCCC3)c(-c3ccccc3)nn2c(=O)c1-c1cn[nH]c1 is ____.
Reply: 1310

---

target: S-adenosylmethionine synthase isoform type-2 (Homo sapiens); test: Inhibition of recombinant human MAT2A expressed in baculovirus infected Sf9 cells assessed as S-adenosyl methionine production using L-methionine as substrate incubated for 60 mins followed by substrate addition and measured after 60 mins relative to control; parameters: concentration or dose not given beside the values
# label = T if inhibition >= 90% else F

- Smiles entry: "COc1ccc(-c2c(Nc3ccccn3)[nH]c3c(-c4ccccc4)c(-c4ccccc4)nn3c2=O)cc1"
  Target entity: "S-adenosylmethionine synthase isoform type-2 (Homo sapiens)"
  Answer label: "F"
- Smiles entry: "CCOC(=O)n1ccc(Nc2[nH]c3c(-c4ccccc4)c(-c4ccccc4)nn3c(=O)c2-c2ccc(OC)cc2)n1"
  Target entity: "S-adenosylmethionine synthase isoform type-2 (Homo sapiens)"
  Answer label: "T"
- Smiles entry: "Cc1cc(=O)n2nc(-c3cccc(F)c3)c(-c3ccccc3)c2[nH]1"
  Target entity: "S-adenosylmethionine synthase isoform type-2 (Homo sapiens)"
  Answer label: "F"
- Smiles entry: "Cc1[nH]c2c(C3=CCCC3)c(-c3ccccc3)nn2c(=O)c1-c1ccc2ncccc2c1"
  Target entity: "S-adenosylmethionine synthase isoform type-2 (Homo sapiens)"
  Answer label: "T"
- Smiles entry: "Cc1[nH]c2c(C3=CCCCC3)c(-c3ccccc3)nn2c(=O)c1-c1ccc2ncccc2c1"
  Target entity: "S-adenosylmethionine synthase isoform type-2 (Homo sapiens)"
  Answer label: "T"

API: the following record is the query input.
Query: Does Cc1[nH]c2c(-c3ccccc3)c(-c3ccccc3)nn2c(=O)c1-c1ccc2ncccc2c1 have a reported inhibition of at least 90%?
Reply: T
